The reported numbers originate from the supplement of paper PMC6555819.

- System: RARg:RXRa (NR concentration 270 nM, RXRa partner concentration 90 nM)
- test-details: PBM binding z-score (relative to random genomic background probes); higher = stronger binding; sequences stand for … in GC…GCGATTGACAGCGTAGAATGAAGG
The threshold is inclusive: PBM binding z-score of exactly 4 counts as true (1); values below receive false (0).

Q. Check the entry `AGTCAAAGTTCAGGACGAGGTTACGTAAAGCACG` : does PBM binding z-score equal or exceed 4?
A. true (1)

Q. Follow-up entry: `GCCCGGAGGACAAGGTCAGAGCTTTGTCCGTAGA`
A. false (0)

Q. Consider next the sequence `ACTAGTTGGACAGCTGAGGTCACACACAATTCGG` in the same way.
A. false (0)

Q. Please give the result for `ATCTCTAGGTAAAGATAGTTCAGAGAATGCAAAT` too.
A. false (0)

Q. Check `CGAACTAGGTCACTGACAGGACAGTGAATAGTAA` too.
A. true (1)

Q. What would you report for `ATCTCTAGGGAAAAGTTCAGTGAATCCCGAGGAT` ?
A. false (0)

###

- System: PPARg DBDmut:RXRa IVT, anti-PPARg (DBD mutation: PPARg1 K132A/R137A, NR concentration 270 nM, RXRa partner concentration 90 nM)
- test-details: PBM binding z-score (relative to random genomic background probes); higher = stronger binding; sequences stand for … in GC…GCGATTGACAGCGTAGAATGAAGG
metric: PBM binding z-score

Sample answers from the record:
{"seq": "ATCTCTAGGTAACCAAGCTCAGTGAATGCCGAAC", "PBM binding z-score": 1.25}
{"seq": "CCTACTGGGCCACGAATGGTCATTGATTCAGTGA", "PBM binding z-score": -0.0715}
{"seq": "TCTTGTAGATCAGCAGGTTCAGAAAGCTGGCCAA", "PBM binding z-score": -0.291}
{"seq": "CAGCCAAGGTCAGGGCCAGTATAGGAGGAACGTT", "PBM binding z-score": -0.336}
{"seq": "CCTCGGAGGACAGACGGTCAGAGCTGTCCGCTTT", "PBM binding z-score": -1.14}
{"seq": "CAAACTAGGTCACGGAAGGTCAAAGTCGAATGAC", "PBM binding z-score": 6.9}
{"seq": "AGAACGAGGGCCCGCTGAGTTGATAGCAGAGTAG", "PBM binding z-score": -0.976}
{"seq": "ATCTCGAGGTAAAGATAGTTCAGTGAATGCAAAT", "PBM binding z-score": 0.0992}

Q. What value of PBM binding z-score has been recorded for this entry: `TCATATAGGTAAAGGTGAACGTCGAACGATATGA`
A. 1.68

Q. Also, `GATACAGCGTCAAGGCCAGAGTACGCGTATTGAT` please.
A. -0.853

Q. What do you get for `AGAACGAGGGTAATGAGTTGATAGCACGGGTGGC` ?
A. -0.702

Q. What do you get for `CCGACTGGGGTAGAAAGGTTACCATACCATCCGG` ?
A. -1.23

Q. Lookup `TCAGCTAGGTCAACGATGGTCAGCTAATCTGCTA`
A. -0.361

Q. One more sequence: `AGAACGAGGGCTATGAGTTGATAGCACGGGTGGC`
A. -0.172

Q. // repeat for `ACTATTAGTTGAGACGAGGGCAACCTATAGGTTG` and report
A. 1.43

Q. Please do the same for `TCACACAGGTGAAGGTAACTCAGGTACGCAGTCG` as well.
A. 0.51

Q. Now give it for `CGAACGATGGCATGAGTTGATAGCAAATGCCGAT` too.
A. -0.379

Q. Next sequence up: `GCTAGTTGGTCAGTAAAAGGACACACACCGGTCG`
A. 0.0692

Q. For `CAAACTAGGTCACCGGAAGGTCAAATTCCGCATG` then?
A. 3.05

Q. Try `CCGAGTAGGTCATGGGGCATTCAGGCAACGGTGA` next.
A. 0.331

Q. // query: `TAGCCTAGGTCAGATCGCGCCAGTATACGCTATA`
A. -0.73

Q. For `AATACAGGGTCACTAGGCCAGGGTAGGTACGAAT` then?
A. 2.53

Q. Input `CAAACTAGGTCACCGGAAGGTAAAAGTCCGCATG`
A. 5.23

Q. And what about the sequence `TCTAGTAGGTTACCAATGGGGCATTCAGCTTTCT` ?
A. 0.435

Q. Can you handle `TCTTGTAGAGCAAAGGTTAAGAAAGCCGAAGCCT` next?
A. 0.281

Q. # repeat for `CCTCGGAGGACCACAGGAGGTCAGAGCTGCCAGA`
A. -0.752

###

- Tested on: VDR homodimer (NR concentration 270 nM)
- test-details: PBM binding z-score (relative to random genomic background probes); higher = stronger binding; sequences stand for … in GC…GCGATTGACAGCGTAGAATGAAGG
metric: PBM binding z-score
Keep it simple and answer with nothing but the number.

Some sequences with known PBM binding z-score results, for comparison:
{"seq": "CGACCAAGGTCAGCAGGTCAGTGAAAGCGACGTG", "recorded-value": 1.16}
{"seq": "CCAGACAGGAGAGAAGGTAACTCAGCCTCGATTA", "recorded-value": 0.0493}
{"seq": "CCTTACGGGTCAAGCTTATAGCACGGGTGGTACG", "recorded-value": 0.754}
{"seq": "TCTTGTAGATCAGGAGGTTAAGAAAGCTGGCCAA", "recorded-value": -0.308}
{"seq": "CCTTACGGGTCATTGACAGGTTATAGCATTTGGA", "recorded-value": 1.67}
{"seq": "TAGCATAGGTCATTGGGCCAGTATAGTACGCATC", "recorded-value": 0.622}
{"seq": "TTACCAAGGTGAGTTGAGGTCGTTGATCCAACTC", "recorded-value": 2.18}
{"seq": "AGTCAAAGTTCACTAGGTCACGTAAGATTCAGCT", "recorded-value": 4.43}

Q. Need PBM binding z-score, item `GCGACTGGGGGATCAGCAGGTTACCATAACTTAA`
A. 0.0827

Q. Follow-up item: `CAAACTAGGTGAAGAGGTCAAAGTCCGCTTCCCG`
A. 3.38

Q. Quick one: `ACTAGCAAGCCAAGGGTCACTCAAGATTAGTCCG`
A. 1.08

Q. Cool, now `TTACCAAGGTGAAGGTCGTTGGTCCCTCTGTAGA`
A. 0.98

###

- Test system: PXR:RXRa (NR concentration 270 nM, RXRa partner concentration 90 nM)
- test-details: PBM binding z-score (relative to random genomic background probes); higher = stronger binding; sequences stand for … in GC…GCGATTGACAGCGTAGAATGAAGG
Catalogue of PBM binding z-score values

Some solved cases for reference:
{"seq": "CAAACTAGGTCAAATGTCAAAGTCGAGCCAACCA", "PBM binding z-score": 3.16}
{"seq": "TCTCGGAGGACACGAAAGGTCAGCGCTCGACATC", "PBM binding z-score": 4.36}
{"seq": "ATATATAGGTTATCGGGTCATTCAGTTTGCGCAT", "PBM binding z-score": 3.91}

Q. PXR:RXRa (NR concentration 270 nM, RXRa partner concentration 90 nM) / PBM binding z-score / `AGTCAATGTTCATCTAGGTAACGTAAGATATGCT` : value?
A. -0.196

Q. Follow-up item: `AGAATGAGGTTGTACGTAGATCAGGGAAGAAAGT`
A. 0.252

Q. Now give it for `CCTACTGGGCCAAAAAGCTCATTGATGCCGATAA` too.
A. -0.847

Q. Record: `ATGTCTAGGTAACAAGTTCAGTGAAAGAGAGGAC`
A. 1.69

Q. Now the same for `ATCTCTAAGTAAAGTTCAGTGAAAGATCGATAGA`
A. 2.03

Q. Follow-up entry: `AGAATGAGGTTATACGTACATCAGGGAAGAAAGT`
A. 1.28

###

- Test system: LXRa homodimer (NR concentration 270 nM)
- test-details: PBM binding z-score (relative to random genomic background probes); higher = stronger binding; sequences stand for … in GC…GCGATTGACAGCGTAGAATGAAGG
metric: PBM binding z-score
The answer should be written as a number, with no unit following it.

Observe how each entry below is paired with its result.
{"seq": "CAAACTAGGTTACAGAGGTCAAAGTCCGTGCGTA", "tested-system": "LXRa homodimer (NR concentration 270 nM)", "recorded-value": 7.09}
{"seq": "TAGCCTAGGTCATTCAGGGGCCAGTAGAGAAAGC", "tested-system": "LXRa homodimer (NR concentration 270 nM)", "recorded-value": 0.592}
{"seq": "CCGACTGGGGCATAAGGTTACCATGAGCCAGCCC", "tested-system": "LXRa homodimer (NR concentration 270 nM)", "recorded-value": -0.247}
{"seq": "TCTGCTAGGTCAGTTGGTCAGCTAGCGAGCTGCC", "tested-system": "LXRa homodimer (NR concentration 270 nM)", "recorded-value": -0.728}
{"seq": "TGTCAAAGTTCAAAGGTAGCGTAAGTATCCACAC", "tested-system": "LXRa homodimer (NR concentration 270 nM)", "recorded-value": 4.44}
{"seq": "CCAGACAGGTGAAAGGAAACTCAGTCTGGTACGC", "tested-system": "LXRa homodimer (NR concentration 270 nM)", "recorded-value": -0.46}
{"seq": "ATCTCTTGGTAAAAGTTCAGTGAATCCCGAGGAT", "tested-system": "LXRa homodimer (NR concentration 270 nM)", "recorded-value": 1.42}
{"seq": "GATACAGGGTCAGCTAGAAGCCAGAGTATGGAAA", "tested-system": "LXRa homodimer (NR concentration 270 nM)", "recorded-value": -0.483}
{"seq": "TCTTGTAGATCAATAGAGGGTAAGAAAGTGCGCT", "tested-system": "LXRa homodimer (NR concentration 270 nM)", "recorded-value": -0.251}
{"seq": "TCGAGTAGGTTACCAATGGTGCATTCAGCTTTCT", "tested-system": "LXRa homodimer (NR concentration 270 nM)", "recorded-value": -0.491}

Q. Which PBM binding z-score value is on record for `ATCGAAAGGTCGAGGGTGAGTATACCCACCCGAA` ?
A. 0.143

Q. Query `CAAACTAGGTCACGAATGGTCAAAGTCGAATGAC` next
A. 0.845

Q. // repeat for `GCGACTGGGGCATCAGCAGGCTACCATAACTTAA` and report
A. -0.307

Q. Now try `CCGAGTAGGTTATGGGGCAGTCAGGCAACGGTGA` .
A. -0.0975

Q. How about this sequence: `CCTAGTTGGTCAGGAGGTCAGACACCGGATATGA`
A. 0.868

Q. # repeat for `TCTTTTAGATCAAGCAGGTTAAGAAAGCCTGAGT`
A. -0.177

Q. Okay, and `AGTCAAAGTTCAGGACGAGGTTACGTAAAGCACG` ?
A. 2.06

Q. Repeat with `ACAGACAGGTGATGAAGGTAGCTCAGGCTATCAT`
A. -0.372
